Provenance of the data: patent US8912184B1

System: cancer cell lines
protocol_details: Standard Cytotoxicity Assay for other cancer cell types (TC50, CellTiter-Glo)
Assay type: cell-based
condition_context: DU145 cells (prostate); 3 day; read-out: Cmpd A 3 day TC50
Method: Approximately 24 hours later, test compound was added from serial dilutions prepared in DMSO from DMSO stock solutions.
assay_endpoint: CC50 (nM)

{"columns": ["compound", "unit", "recorded_value"],
 "data": [
  ["O=C(NCc1cccnc1)Nc1ccc(COc2ccccc2-c2ccccc2)cc1 [Exemplary Compound A]", "nM", 3.8]
]}

----------
protocol_details: Standard Cytotoxicity Assay for other cancer cell types (TC50, CellTiter-Glo)
Assay type: cell-based
condition_context: human, hFLS-RA (primary synoviocytes); 3 day; read-out: Cmpd A 3 day TC50
assay_endpoint: CC50 at 3 day

{"columns": ["compound", "assay_endpoint", "recorded_value"],
 "data": [
  ["O=C(NCc1cccnc1)Nc1ccc(COc2ccccc2-c2ccccc2)cc1 [Exemplary Compound A]", "CC50 at 3 day", "> 25 µM"]
]}
